// data source = the EternaBench riboswitch data

Listed here are sequences together with their documented apparent Kd.
system: MS2 coat protein; test: apparent Kd, MS2 coat protein; higher = weaker binding; RNA-MaP array; theophylline 2 mM where present; details: designed as: OFF switch for theophylline; no ligand

| SEQUENCE TEXT | MEASURED TARGET | apparent Kd (nM) |
| --- | --- | --- |
| GAUGAACUAUUUGAUACCAGACUACAUGAGGAUCACCCAUGUGAGUUUAUACUUCAGUCAGUCCCUUGGCAGCAAAUAGUUUAUC | MS2 coat protein | 44.9 |
| AUAAGUAAGUUUUCGUGUUUUAUUACAGAUACCAGACUAUACGUUGUCCCUUGGCAGCUGGAUUACAUGAGGAUCACCCAUGUUG | MS2 coat protein | 24.5 |
| AGACAUGAGGAUCACCCAUGUAGCAUGGAUACCAGAUCCAGAUUUAUCCCUUGGCAGCUGUGGUACAGUGAUGGAUUGCUCCUAG | MS2 coat protein | 79 |
| GAGCUGAUGUAGAGUGGAUAUCCUUGAGAUACCAGUACAGAAAUGUACCCUUGGCAGCUCUUCUUUACAUGAGGAUCACCCAUGU | MS2 coat protein | 13.1 |
| UGACAUUGCUCAGAUACCAGACAUGAGGAUCACCCAUGUACCAAGGUAAAGAAAUAACGUGUCCCUUGGCAGCUGAGCAAUGUCU | MS2 coat protein | 10.1 |
| ACAUGAGGAUCACCCAUGUUCCUCAUUGAUACCAGUGAAUUUAGACGCCCUUGGCAGCGAGUUUUUUUAUAAGUUUUUUUUUUUU | MS2 coat protein | 665 |
| GAUGAUAUUGCAGAUACCAGACACAUGAGGAUCACCCAUGUCGUUGGGUCGCUGGGUCGUGUCCCUUGGCAGCUGCGAUAUCAUC | MS2 coat protein | 30.7 |

###

test system: MS2 coat protein; assay: apparent Kd, MS2 coat protein; higher = weaker binding; RNA-MaP array; FMN 200 µM where present; settings: ligand present: flavin mononucleotide; designed as: OFF switch for flavin mononucleotide
QUANTITY KIND: apparent Kd (nM)

| SEQUENCE TEXT | MEASURED TARGET | MEASURE UNIT | VALUE |
| --- | --- | --- | --- |
| UUUGAAUAGGUAGGAUAUACAUACAUUCCUACAUUACUAACAUGAGGAUCACCCAUGUAUACAUUGUAGAAGGACCAGAUUGAU | MS2 coat protein | nM | 23.9 |
| UCUUGACAUGAGGAUCACCCAUGUCAGGAUAUAGUAGGACAAAUAAAUAAAAGUUCUACUAGAAGGGAUAUGGG | MS2 coat protein | nM | 46.8 |
| UCGUGUUAUACAGGAUAUGUUUAGGUUUAUUCAUUCAGUUAUUAAUUUAUGACAGAAGGGUAUACAUGAGGAUCACCCAUGUCA | MS2 coat protein | nM | 306 |
| CUAUCUUGCAAGGAUAUGCAAUUUAUUAUUUAUGCAGAAGGUGCUACAUGAGGAUCACCCAUGUUUCUGGGUUU | MS2 coat protein | nM | 257 |
| CAGGUCUGAGGAUAUCCAUCCUCCUACAUGAGGAUCACCCAUGUUUCCCUCUGGGUUUUCGGAGAAGGCAGUUUUU | MS2 coat protein | nM | 525 |
| CCAUGUUAGCAGGAUAUGCCAUUAUUCCUUUACGCAGAAGGGCUUACAUGAGGAUCACCCAUGUAACAUUUCAU | MS2 coat protein | nM | 29.5 |
| UGUAUAUAGGCAGGAUAUACAUGAAUAUAUAUGAUGUAGUAUGAUGUAACAUGAGGAUCACCCAUGUAGAAGGGCCAGUAUAUA | MS2 coat protein | nM | 129 |

###

system: MS2 coat protein; assay: apparent Kd, MS2 coat protein; higher = weaker binding; RNA-MaP array; FMN 200 µM where present; conditions: designed as: OFF switch for flavin mononucleotide; no ligand
QUANTITY KIND: apparent Kd

| SEQUENCE TEXT | QUANTITY KIND | VALUE |
| --- | --- | --- |
| AAAUUUAACGAAGGAUAUGCUGACAUGAGGAUCACCCAUGUGUGCCUUGUGUUGCUGAAACGGGAGCAGAAGGUCGUAUACAUA | apparent Kd | 694 nM |
| CUCAUGUGAGGAUAUCAGUAGUAAAAAAAUAAAAUUACUACUGAGAAGGCACAUGAGGAUCACCCAUGUACCUU | apparent Kd | 70.7 nM |
| AGUAUGAGAGGAUAUACGAAUAAACAUGGAAACAUGAUGGGACAUGAGGAUCACCCAUGUAGAAGGCUCGUACA | apparent Kd | 118 nM |
| GAGCUAUGAGGAUAUGCAUAUAUACGGUUUCGUGUGGUACUACAUGAGGAUCACCCAUGUAGAAGGCGUGGCUG | apparent Kd | 17.7 nM |
| UACAGACAUGAGGAUCACCCAUGUGAGGAUAUCGAUAACGAUAACAUAAUAUAAACGGCGAGAAGGCACAGCAU | apparent Kd | 31.7 nM |
| ACAUGAGGAUCACCCAUGUUUAUUGGGUACUAUACUAUCAGCAAGGAUAUGCAAAUUUUUUUUACGCAGAAGGUGCAGGAACCU | apparent Kd | 523 nM |
| GUCCCGAGGGAGAAGGGCUAGGAGGUCCAGCUUAUGUGUGUUGCAACAUGAGGAUCACCCAUGUAGCAGGAUAUCCCUUGUACA | apparent Kd | 52.2 nM |

###

Listed here are sequences together with their documented apparent Kd.
tested on: MS2 coat protein; test: apparent Kd, MS2 coat protein; higher = weaker binding; RNA-MaP array; details: ligand present: flavin mononucleotide; designed as: OFF switch for flavin mononucleotide
QUANTITY KIND: apparent Kd (nM)

| SEQUENCE TEXT | VALUE |
| --- | --- |
| GUUAGUCCACGAGGAUAUCGAAAUCGGCCCAGUGAAUUUUCACAUGAGGAUCACCCAUGUCAUAUCGAGAAGGCGUCUGAAAGC | 41.9 |
| CCAGCAUGGCAGACCAUACAUGAGGAUCACCCAUGUAGAAGCUAGGAUAUAAAUGUAACACACUAUUAGAAGGAGCGCUACCUU | 6.51 |
| CCUGUGAUCCACAUGAGGAUCACCCAUGUAUAAGUGAUUGACAGAAGGAGAGCAUGCUUGUGAUUCUAGGAUAUGUUUCUCAUA | 25.9 |
| UUGAAACAUGAGGAUCACCCAUGUCAGGAUAUCUUAACCCACUUACGCGAGUGUAGCCAGAGAAGGGACAGCGG | 17.4 |

###

Listed here are sequences together with their documented apparent Kd.
test system: MS2 coat protein; test: apparent Kd, MS2 coat protein; higher = weaker binding; RNA-MaP array; details: designed as: OFF switch for flavin mononucleotide; no ligand

| SEQUENCE TEXT | MEASURED TARGET | apparent Kd |
| --- | --- | --- |
| ACGAAUGUAGGAUAUACCAGUAGGAGAUGGGUAUCAGCACCACAUGAGGAUCACCCAUGUAGAAGGACACGUGA | MS2 coat protein | 38.4 nM |
| CCGCGCGUAGGAUAUACUAGUGUAUCAGUCGGUAUUGGAAAACAUGAGGAUCACCCAUGUAGAAGGACGCUAAU | MS2 coat protein | 8.4 nM |
| GCGGAACAUGAGGAUCACCCAUGUAAGGAUAUCGUGAGGGAACGGCAGCAACACUGAUCGAGAAGGUACAGGGC | MS2 coat protein | 23 nM |
| CAAAACUGAGGAUAUACAAAGAAAUGGAACAUAGUACAGUAACAUGAGGAUCACCCAUGUAGAAGGCAGGACUA | MS2 coat protein | 6.01 nM |

###

system: MS2 coat protein; test: apparent Kd, MS2 coat protein; higher = weaker binding; RNA-MaP array; conditions: designed as: OFF switch for tryptophan; no ligand
Classification field: enter True for apparent Kd values not below 0.02 µM, False for values below it.

| SEQUENCE TEXT | MEASURED TARGET | CATEGORY LABEL |
| --- | --- | --- |
| UGUCACUGUUUGGUUCAAUGAAGAAGAAUUCGAGGACCGGUACGGCCGCCACUCGCUAUGCAACAUGAGGAUCACCCAUGUAAAA | MS2 coat protein | False |
| GGAACAUGAGGAUCACCCAUGUAAUCACGACGAGGACCGGUACGGCCGCCACUCGUAUUCACGCAAGGUAGAGGAAUACGUAGGC | MS2 coat protein | False |
| GCACGGGCGAUCGGCACUUUUACUAAUAUACGAGGACCGGUACGGCCGCCACUCGAGCUAAGACAUGAGGAUCACCCAUGUAACG | MS2 coat protein | True |
| ACUGCUUUAGCGGCCGCCACUACAUGGACACUUACACUUUCUUGUUACAUGAGGAUCACCCAUGUUAGGACCGGGCUUGUACGGA | MS2 coat protein | True |
| CAACUGCUUGAGCUUACUUAUUGGACUUCCCGAGGACCGGUACGGCCGCCACUCGCAGGGACACAUGAGGAUCACCCAUGUAAAG | MS2 coat protein | False |
| GCCCUGCGCCCGGGACCGGCAAGAUCCAUGCGAGGACCGGUACGGCCGCCACUCGCAGACGUACAUGAGGAUCACCCAUGUCCUC | MS2 coat protein | True |
